System: methicillin-sensitive Staphylococcus epidermidis (MSSE)
Test: MIC, two-fold agar dilution (CLSI), clinical isolates
Assay type: cell-based
Conditions: strain MSSE 14-2
From the text: 1. The invention adopts the two-fold agar dilution method recommended by the operating procedure of antimicrobial susceptibility testing set by American Clinical and Laboratory Standards Institute (CLSI) to determine the Minimum Inhibitory Concentration (MIC) of the test samples against the tested strains.
Quantity: MIC (anti-bacterial activity) (µg/mL)
Just the number please, in µg/mL, no unit attached.

GET /values?readout=MIC (anti-bacterial activity)&item= CCCC[C@H](CN(O)C=O)C(=O)N1CC2(CC2)C[C@H]1C(=O)Nc1cc[nH]n1 16

I'd like to know its MIC (anti-bacterial activity). The compound in question is CCCC[C@H](CN(O)C=O)C(=O)N1CC2(CC2)C[C@H]1C(=O)Nc1cccc(Nc2ncccn2)c1 0.25

Look at this compound and give its reported MIC (anti-bacterial activity). CCCC[C@H](CN(O)C=O)C(=O)N1CC2(CC2)C[C@H]1C(=O)Nc1ccc(F)c[n+]1[O-] 0.125

Which MIC (anti-bacterial activity) is listed for CCCC[C@H](CN(O)C=O)C(=O)N1CC2(CC2)C[C@H]1c1nnc(-c2ccccn2)o1 ? 1

Quick one: MIC (anti-bacterial activity) of CCCC[C@H](CN(O)C=O)C(=O)N1CC2(CC2)C[C@H]1C(=O)Nc1ncccc1F ? 0.25

Consider the compound shown here: CCCC[C@H](CN(O)C=O)C(=O)N1CC2(CC2)C[C@H]1c1nnc2ccccn12 What is its recorded MIC (anti-bacterial activity)? 0.5

Value lookup for MIC (anti-bacterial activity); key = CCCC[C@H](CN(O)C=O)C(=O)N1CC2(CC2)C[C@H]1C(=O)Nc1cc(C(C)(C)C)on1 0.125

###

Test system: methicillin-resistant Staphylococcus epidermidis (MRSE)
Assay: MIC, two-fold agar dilution (CLSI), clinical isolates
Format: cell-based
Conditions: strain MRSE 15-3
Quantity: log10(MIC (anti-bacterial activity)) (log10 of the value in µg/mL)
Response schema: value (number) is log10 of MIC (anti-bacterial activity) in units of µg/mL.

# returns recorded log10(MIC (anti-bacterial activity)) (system: methicillin-resistant Staphylococcus epidermidis (MRSE)) for CCCC[C@H](CN(O)C=O)C(=O)N1CC2(CC2)C[C@H]1C(=O)Nc1nccs1 -0.90

What reported log10(MIC (anti-bacterial activity)) corresponds to O=CN(O)C[C@@H](CC1CCCC1)C(=O)N1CC2(CC2)C[C@H]1C(=O)Nc1ncco1 on methicillin-resistant Staphylococcus epidermidis (MRSE)? 0.90

Hello, I am looking for reported log10(MIC (anti-bacterial activity)) with methicillin-resistant Staphylococcus epidermidis (MRSE) for O=CN(O)C[C@@H](CC1CCCC1)C(=O)N1CC2(CC2)C[C@H]1C(=O)Nc1cnccn1 . Could you help? -0.30

Item: CCCC[C@H](CN(O)C=O)C(=O)N1CC2(CC2)C[C@H]1c1nc2ccccc2n1CCN(C)C Test system: methicillin-resistant Staphylococcus epidermidis (MRSE) Read-out: log10(MIC (anti-bacterial activity)) Value: ? 0.90

Value wanted: log10(MIC (anti-bacterial activity)) (methicillin-resistant Staphylococcus epidermidis (MRSE)) of entry CCCC[C@H](CN(O)C=O)C(=O)N1CC2(CC2)C[C@H]1C(=O)Nc1ccno1 -0.30

Quick check: log10(MIC (anti-bacterial activity)) on methicillin-resistant Staphylococcus epidermidis (MRSE), item O=CN(O)C[C@@H](CC1CCCC1)C(=O)N1CC2(CC2)C[C@H]1C(=O)Nc1ncccc1F ? 0.30

Lab note: need log10(MIC (anti-bacterial activity)) for CCCC[C@H](CN(O)C=O)C(=O)N1CC2(CC2)C[C@H]1C(=O)Nc1cnccn1 on methicillin-resistant Staphylococcus epidermidis (MRSE), anyone have it? -0.60

Recorded log10(MIC (anti-bacterial activity)) for Cc1csc(NC(=O)[C@@H]2CC3(CC3)CN2C(=O)[C@H](CC2CCCC2)CN(O)C=O)n1 with methicillin-resistant Staphylococcus epidermidis (MRSE), please? -0.90

For the record O=CN(O)C[C@@H](CC1CCCC1)C(=O)N1CC2(CC2)C[C@H]1C(=O)NC1CC1 , what value of log10(MIC (anti-bacterial activity)) is listed for methicillin-resistant Staphylococcus epidermidis (MRSE)? 0.90

methicillin-resistant Staphylococcus epidermidis (MRSE) / log10(MIC (anti-bacterial activity)) / O=CN(O)C[C@@H](CC1CCCC1)C(=O)N1CC2(CC2)C[C@H]1C(=O)Nc1ccno1 : value? 0.00

Value wanted: log10(MIC (anti-bacterial activity)) (methicillin-resistant Staphylococcus epidermidis (MRSE)) of entry CCCC[C@H](CN(O)C=O)C(=O)N1CC2(CC2)C[C@H]1C(=O)Nc1cc(C)on1 -0.60

Give the reported log10(MIC (anti-bacterial activity)) for O=CN(O)C[C@@H](CC1CCCC1)C(=O)N1CC2(CC2)C[C@H]1C(=O)N1CCS(=O)(=O)CC1 (system: methicillin-resistant Staphylococcus epidermidis (MRSE)). 1.51

So what log10(MIC (anti-bacterial activity)) did CC(C)(C)c1cc(NC(=O)[C@@H]2CC3(CC3)CN2C(=O)[C@H](CC2CCCC2)CN(O)C=O)no1 get with methicillin-resistant Staphylococcus epidermidis (MRSE)? -0.60

Hello, I am looking for reported log10(MIC (anti-bacterial activity)) with methicillin-resistant Staphylococcus epidermidis (MRSE) for CCCC[C@H](CN(O)C=O)C(=O)N1CC2(CC2)C[C@H]1C(=O)Nc1ccc(N2CCOCC2)cc1 . Could you help? 0.00

Form: Entry = COC(=O)c1sccc1NC(=O)[C@@H]1CC2(CC2)CN1C(=O)[C@H](CC1CCCC1)CN(O)C=O | System = methicillin-resistant Staphylococcus epidermidis (MRSE) | log10(MIC (anti-bacterial activity)) = ____ 0.60

Hi! What's the reported log10(MIC (anti-bacterial activity)) for O=CN(O)C[C@@H](CC1CCCC1)C(=O)N1CC2(CC2)C[C@H]1C(=O)Nc1ccc(N2CCOCC2)cc1 on methicillin-resistant Staphylococcus epidermidis (MRSE)? -0.60

Record lookup: for methicillin-resistant Staphylococcus epidermidis (MRSE), what log10(MIC (anti-bacterial activity)) belongs to O=CN(O)C[C@@H](CC1CCCC1)C(=O)N1CC2(CC2)C[C@H]1C(=O)Nc1ccc(F)cn1 ? -0.30

Query log10(MIC (anti-bacterial activity)) on methicillin-resistant Staphylococcus epidermidis (MRSE) for Cc1cc(NC(=O)[C@@H]2CC3(CC3)CN2C(=O)[C@H](CC2CCCC2)CN(O)C=O)no1 0.00

Identify the measured log10(MIC (anti-bacterial activity)) of Cc1cnc(NC(=O)[C@@H]2CC3(CC3)CN2C(=O)[C@H](CC2CCCC2)CN(O)C=O)s1 for methicillin-resistant Staphylococcus epidermidis (MRSE). -0.90

Please provide the recorded log10(MIC (anti-bacterial activity)) for O=CN(O)C[C@@H](CC1CCCC1)C(=O)N1CC2(CC2)C[C@H]1C(=O)Nc1ccncn1 , tested on methicillin-resistant Staphylococcus epidermidis (MRSE). -0.90

Test system methicillin-resistant Staphylococcus epidermidis (MRSE); read-out log10(MIC (anti-bacterial activity)); what value for CCCC[C@H](CN(O)C=O)C(=O)N1CC2(CC2)C[C@H]1C(=O)NC1CC1 ? 0.30

log10(MIC (anti-bacterial activity)) of CCCC[C@H](CN(O)C=O)C(=O)N1CC2(CC2)C[C@H]1C(=O)Nc1ccncn1 on methicillin-resistant Staphylococcus epidermidis (MRSE)? -0.60

Reported log10(MIC (anti-bacterial activity)) for methicillin-resistant Staphylococcus epidermidis (MRSE), given CCCC[C@H](CN(O)C=O)C(=O)N1CC2(CC2)C[C@H]1C(=O)Nc1nncs1 ? -0.60

Could you share what log10(MIC (anti-bacterial activity)) was measured for CCCC[C@H](CN(O)C=O)C(=O)N1CC2(CC2)C[C@H]1C(=O)Nc1nc(C)cs1 , tested on methicillin-resistant Staphylococcus epidermidis (MRSE)? -0.90

Recall the recorded log10(MIC (anti-bacterial activity)) for O=CN(O)C[C@@H](CC1CCCC1)C(=O)N1CC2(CC2)C[C@H]1C(=O)Nc1cc[nH]n1 with methicillin-resistant Staphylococcus epidermidis (MRSE) and state it. 0.30

###

Tested on: methicillin-sensitive Staphylococcus epidermidis (MSSE)
Assay: MIC, two-fold agar dilution (CLSI), clinical isolates
Type: cell-based
Conditions: strain MSSE 14-1
Please respond with reported MIC (anti-bacterial activity) for every item in the list.
Respond numerically; units are µg/mL and should not be typed.

Look at this compound and give its reported MIC (anti-bacterial activity). CCCC[C@H](CN(O)C=O)C(=O)N1CC2(CC2)C[C@H]1C(=O)Nc1nccc(-c2cccnc2)n1 0.125

Would you kindly share the measured MIC (anti-bacterial activity) for CCCC[C@H](CN(O)C=O)C(=O)N1CC2(CC2)C[C@H]1C(=O)Nc1cc[nH]n1 ? 4

Request the reported MIC (anti-bacterial activity) associated with CCCC[C@H](CN(O)C=O)C(=O)N1CC2(CC2)C[C@H]1c1nnc(-c2ccccn2)o1 1

Entry CCCC[C@H](CN(O)C=O)C(=O)N1CC2(CC2)C[C@H]1C(=O)Nc1cccc(Nc2ncccn2)c1 has what MIC (anti-bacterial activity)? 0.125

Given CCCC[C@H](CN(O)C=O)C(=O)N1CC2(CC2)C[C@H]1C(=O)Nc1ccc(C)c(Nc2nccc(-c3cccnc3)n2)c1 , state its recorded MIC (anti-bacterial activity). 0.015

Would you mind telling me what MIC (anti-bacterial activity) value was observed for CCCC[C@H](CN(O)C=O)C(=O)N1CC2(CC2)C[C@H]1C(=O)Nc1ncccc1F ? 0.125

Item under review: CCCC[C@H](CN(O)C=O)C(=O)N1CC2(CC2)C[C@H]1C(=O)Nc1ccc(F)c[n+]1[O-] . Reported MIC (anti-bacterial activity)? 0.03
